Each recorded value in this set is attributed to patent US8557833B2.

target: Aurora-1 (Aurora B) (Homo sapiens); assay: Aurora-1 (Aurora B) inhibition assay (radiometric); format: biochemical; settings: 800 μM ATP, Kemptide, 25° C.; read-out: Aurora B Ki
Sequence (Q96GD4 whole entry): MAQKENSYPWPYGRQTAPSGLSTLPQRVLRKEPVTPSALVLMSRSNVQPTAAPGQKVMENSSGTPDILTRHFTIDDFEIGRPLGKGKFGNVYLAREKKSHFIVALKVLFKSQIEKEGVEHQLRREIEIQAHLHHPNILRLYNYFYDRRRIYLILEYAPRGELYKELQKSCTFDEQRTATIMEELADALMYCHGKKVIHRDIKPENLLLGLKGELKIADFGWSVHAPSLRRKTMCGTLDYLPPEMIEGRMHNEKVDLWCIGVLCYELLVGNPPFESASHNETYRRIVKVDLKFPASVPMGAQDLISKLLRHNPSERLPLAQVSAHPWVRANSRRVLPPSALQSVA
PROPERTY: pKi
Notebook: values listed as pKi are -log10 of the concentration (mol/L).

Tell me the measured pKi of O=C(Nc1ccc(Sc2nc(Nc3cc(C4CC4)[nH]n3)cc(N3CCC3)n2)cc1)c1ccccc1Cl , please.
8.22

Tell me the measured pKi of Cc1cc(Nc2cc(N3CCC3)nc(Sc3ccc(NC(=O)c4cccc(Cl)c4F)cc3)n2)n[nH]1 , please.
8.12

Tell me the measured pKi of COc1ccccc1C(=O)Nc1ccc(Sc2nc(Nc3cc(C)[nH]n3)cc(N3CCC3)n2)cc1 , please.
7.59

====

Target protein (sequence): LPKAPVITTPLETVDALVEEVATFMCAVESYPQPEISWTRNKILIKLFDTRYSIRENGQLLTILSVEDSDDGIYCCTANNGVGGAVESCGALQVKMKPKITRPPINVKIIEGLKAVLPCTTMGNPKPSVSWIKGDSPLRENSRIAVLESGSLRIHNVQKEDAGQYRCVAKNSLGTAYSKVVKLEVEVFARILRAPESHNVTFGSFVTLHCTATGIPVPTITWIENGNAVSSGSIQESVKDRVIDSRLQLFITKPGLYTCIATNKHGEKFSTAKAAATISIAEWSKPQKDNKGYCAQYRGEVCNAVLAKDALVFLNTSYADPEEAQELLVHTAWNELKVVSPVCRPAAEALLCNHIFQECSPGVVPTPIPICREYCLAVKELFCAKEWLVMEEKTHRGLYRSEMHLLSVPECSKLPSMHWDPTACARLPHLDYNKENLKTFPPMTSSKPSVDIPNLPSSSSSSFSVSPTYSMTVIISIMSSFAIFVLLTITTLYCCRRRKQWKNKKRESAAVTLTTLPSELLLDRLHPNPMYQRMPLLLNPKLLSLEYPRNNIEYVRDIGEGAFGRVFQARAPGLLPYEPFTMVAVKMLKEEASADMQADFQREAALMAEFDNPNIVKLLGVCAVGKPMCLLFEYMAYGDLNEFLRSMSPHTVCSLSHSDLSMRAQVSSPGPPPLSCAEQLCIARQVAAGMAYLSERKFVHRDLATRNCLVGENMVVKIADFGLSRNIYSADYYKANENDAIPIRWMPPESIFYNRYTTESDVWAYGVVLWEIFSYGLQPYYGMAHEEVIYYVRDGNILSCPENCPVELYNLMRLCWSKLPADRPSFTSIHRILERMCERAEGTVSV
PROPERTY: pKi
Notebook: values listed as pKi are -log10 of the concentration (mol/L).

Tell me the measured pKi of Cc1cc(Nc2cc(N3CCC3)nc(Sc3ccc(NC(=O)c4ccccc4Cl)cc3)n2)[nH]n1 , please.
7.15

====

Exercise: for every item that follows, state its recorded Ki.
Molecular target: UniProtKB Q96GD4
Assay: Aurora-1 (Aurora B) inhibition assay (radiometric)
Type: biochemical
Experimental: An assay buffer solution was prepared which consisted of 25 mM HEPES (pH 7.5), 10 mM MgCl2, 0.1% BSA and 10% glycerol. […] To 22 μL of the Aurora-B solution, in a 96-well plate, was added 2 μl of a compound stock solution in DMSO and the mixture allowed to equilibrate for 10 minutes at 25° C. […] The reaction was stopped after 3 hours by the addition of 16 μL 500 mM phosphoric acid and the levels of ^33P incorporation into the peptide substrate were determined by the following method. […]
Please make sure the unit comes right after the number.

Form: Entry = Cc1cccc(C(=O)Nc2ccc(Sc3nc(Nc4cc(C)[nH]n4)cc(N4CCC4)n3)cc2)c1 | System = UniProtKB Q96GD4 | Ki = ____
24 nM

Form: Entry = Cc1cc(Nc2cc(N3CCC3)nc(Sc3ccc(NC(=O)c4cccc(C(F)(F)F)c4F)cc3)n2)n[nH]1 | System = UniProtKB Q96GD4 | Ki = ____
6 nM

Form: Entry = CCc1cc(Nc2cc(N3CCC3)nc(Sc3ccc(NC(=O)c4ccccc4Cl)cc3)n2)n[nH]1 | System = UniProtKB Q96GD4 | Ki = ____
7.5 nM

Form: Entry = Cc1cc(Nc2cc(N3CCC3)nc(Sc3ccc(NC(=O)c4cccc(Cl)c4Cl)cc3)n2)n[nH]1 | System = UniProtKB Q96GD4 | Ki = ____
6.5 nM
